target: SWI/SNF-related matrix-associated actin-dependent regulator of chromatin subfamily A member 4 (Homo sapiens, UniProt P51532)
Sequence (P51532 whole entry): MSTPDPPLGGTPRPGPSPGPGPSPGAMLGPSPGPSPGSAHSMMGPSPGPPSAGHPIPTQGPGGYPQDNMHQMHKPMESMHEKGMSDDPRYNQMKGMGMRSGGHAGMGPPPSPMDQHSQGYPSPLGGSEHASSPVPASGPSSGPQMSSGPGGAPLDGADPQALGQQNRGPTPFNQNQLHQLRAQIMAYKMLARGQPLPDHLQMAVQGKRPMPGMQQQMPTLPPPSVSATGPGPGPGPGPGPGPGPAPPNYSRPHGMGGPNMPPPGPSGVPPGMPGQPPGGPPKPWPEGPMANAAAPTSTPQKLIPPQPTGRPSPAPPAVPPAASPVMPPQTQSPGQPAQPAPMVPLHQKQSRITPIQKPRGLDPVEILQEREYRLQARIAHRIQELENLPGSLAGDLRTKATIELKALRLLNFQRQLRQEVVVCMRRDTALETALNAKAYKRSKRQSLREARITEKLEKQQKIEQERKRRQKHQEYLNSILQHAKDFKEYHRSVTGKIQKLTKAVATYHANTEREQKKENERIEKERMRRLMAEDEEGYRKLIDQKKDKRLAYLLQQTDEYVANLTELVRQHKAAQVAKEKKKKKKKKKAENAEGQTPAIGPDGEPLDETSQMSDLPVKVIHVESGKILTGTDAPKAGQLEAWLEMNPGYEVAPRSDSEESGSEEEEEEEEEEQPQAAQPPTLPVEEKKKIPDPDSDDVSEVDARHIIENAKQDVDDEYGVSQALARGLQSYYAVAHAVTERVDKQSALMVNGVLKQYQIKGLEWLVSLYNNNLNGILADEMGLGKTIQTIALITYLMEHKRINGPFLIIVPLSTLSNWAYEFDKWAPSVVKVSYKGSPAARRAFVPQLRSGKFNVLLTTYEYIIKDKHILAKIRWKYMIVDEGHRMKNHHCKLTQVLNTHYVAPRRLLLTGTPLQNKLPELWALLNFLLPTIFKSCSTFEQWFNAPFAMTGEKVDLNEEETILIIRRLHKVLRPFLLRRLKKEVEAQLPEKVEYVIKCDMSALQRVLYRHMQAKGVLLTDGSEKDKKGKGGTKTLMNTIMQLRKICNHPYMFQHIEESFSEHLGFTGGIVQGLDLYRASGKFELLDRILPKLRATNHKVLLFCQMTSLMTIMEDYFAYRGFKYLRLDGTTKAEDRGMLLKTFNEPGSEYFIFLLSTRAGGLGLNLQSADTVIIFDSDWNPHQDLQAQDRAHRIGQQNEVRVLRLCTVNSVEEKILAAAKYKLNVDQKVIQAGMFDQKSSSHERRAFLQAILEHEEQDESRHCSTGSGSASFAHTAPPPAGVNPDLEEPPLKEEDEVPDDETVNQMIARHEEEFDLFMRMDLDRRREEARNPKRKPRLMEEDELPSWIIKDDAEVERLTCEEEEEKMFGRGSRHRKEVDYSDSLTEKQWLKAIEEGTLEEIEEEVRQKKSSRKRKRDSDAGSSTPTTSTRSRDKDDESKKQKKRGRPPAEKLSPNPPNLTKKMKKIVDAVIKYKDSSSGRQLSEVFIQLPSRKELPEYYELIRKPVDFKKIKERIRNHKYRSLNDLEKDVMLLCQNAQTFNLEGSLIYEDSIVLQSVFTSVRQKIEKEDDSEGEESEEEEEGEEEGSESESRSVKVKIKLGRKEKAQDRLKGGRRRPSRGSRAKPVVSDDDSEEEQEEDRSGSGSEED
readoutLabel: IC50 (nM)

(a) O=c1nc2n(c3cccc(Cl)c13)-c1ccc(C3CCNCC3)cc1C21CCCC1
(b) Cc1ncsc1-c1ccc([C@H](C)NC(=O)[C@@H]2C[C@@H](O)CN2C(=O)[C@@H](c2cc(OC3CCC(N4CCC(c5ccc6c(c5)C(C)(C)c5nc(=O)c7c(Cl)cccc7n5-6)CC4)CC3)no2)C(C)C)cc1 (some centres not stated)
Q: Which value of IC50 is greater, the one for a or the one for b ? Returns: label corresponding to the selected item.
Result: b
(b: 43 nM, a: 24 nM)

---

target: SWI/SNF-related matrix-associated actin-dependent regulator of chromatin subfamily A member 2 (Homo sapiens)
Sequence (P51531 whole entry): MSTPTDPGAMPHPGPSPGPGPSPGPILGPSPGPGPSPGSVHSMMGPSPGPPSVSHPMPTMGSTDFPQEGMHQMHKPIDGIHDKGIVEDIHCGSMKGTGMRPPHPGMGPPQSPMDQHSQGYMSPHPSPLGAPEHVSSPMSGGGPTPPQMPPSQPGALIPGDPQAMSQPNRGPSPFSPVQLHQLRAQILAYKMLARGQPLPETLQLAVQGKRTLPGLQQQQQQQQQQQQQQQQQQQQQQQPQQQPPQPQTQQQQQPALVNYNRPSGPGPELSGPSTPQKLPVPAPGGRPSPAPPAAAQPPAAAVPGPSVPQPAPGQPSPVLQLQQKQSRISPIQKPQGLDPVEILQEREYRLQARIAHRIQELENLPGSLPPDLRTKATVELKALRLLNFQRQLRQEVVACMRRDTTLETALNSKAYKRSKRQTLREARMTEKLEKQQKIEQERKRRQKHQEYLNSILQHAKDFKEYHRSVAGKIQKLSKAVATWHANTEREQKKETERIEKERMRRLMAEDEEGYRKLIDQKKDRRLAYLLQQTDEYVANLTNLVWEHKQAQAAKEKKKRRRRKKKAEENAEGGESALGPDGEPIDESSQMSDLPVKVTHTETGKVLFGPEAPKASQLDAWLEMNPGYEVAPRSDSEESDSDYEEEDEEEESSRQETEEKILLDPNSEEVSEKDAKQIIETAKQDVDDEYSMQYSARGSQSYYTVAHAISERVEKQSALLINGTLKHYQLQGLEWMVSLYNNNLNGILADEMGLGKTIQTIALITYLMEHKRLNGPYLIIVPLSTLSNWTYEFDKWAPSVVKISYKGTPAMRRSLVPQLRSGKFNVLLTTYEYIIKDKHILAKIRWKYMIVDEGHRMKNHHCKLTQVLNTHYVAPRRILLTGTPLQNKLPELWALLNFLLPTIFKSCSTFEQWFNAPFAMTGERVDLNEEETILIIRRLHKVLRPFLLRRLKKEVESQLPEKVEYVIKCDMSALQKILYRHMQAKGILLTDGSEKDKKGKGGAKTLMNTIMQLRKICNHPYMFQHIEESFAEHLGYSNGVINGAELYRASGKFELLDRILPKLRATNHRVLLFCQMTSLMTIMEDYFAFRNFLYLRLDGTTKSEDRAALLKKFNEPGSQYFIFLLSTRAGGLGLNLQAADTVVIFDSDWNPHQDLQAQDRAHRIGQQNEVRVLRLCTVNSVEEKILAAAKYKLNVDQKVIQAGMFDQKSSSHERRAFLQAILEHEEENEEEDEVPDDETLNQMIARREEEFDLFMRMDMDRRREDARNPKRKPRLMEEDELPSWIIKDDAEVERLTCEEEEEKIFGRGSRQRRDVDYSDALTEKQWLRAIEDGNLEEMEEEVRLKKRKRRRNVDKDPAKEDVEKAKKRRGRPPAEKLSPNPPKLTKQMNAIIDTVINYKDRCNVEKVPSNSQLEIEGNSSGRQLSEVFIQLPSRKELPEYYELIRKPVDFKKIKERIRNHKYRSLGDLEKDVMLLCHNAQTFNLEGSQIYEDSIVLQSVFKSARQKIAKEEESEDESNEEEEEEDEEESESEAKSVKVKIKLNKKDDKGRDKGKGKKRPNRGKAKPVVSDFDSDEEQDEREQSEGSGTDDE
pIC50: −log10 of the molar value.
readoutLabel: pIC50

Below, each entry is followed by its recorded pIC50 result.
INSERT INTO results (molecule, valueobserved) VALUES
  ('Cc1ncsc1-c1ccc([C@H](C)NC(=O)[C@@H]2C[C@@H](O)CN2C(=O)[C@@H](c2cc(N3CCC(CN4CCC(c5ccc6c(c5)C(C)(C)c5nc(=O)c7c(Cl)cccc7n5-6)CC4)CC3)no2)C(C)C)cc1', 7.80),
  ('Cc1ncsc1-c1ccc([C@H](C)NC(=O)[C@@H]2C[C@@H](O)CN2C(=O)[C@@H](c2cc(OCCCCN3CCC(c4ccc5c(c4)C(C)(C)c4nc(=O)c6c(Cl)cccc6n4-5)CC3)no2)C(C)C)cc1', 7.15);

(1) Cc1ncsc1-c1ccc([C@H](C)NC(=O)[C@@H]2C[C@@H](O)CN2C(=O)[C@@H](c2cc(OC3CCC(N4CCC(c5ccc6c(c5)C(C)(C)c5nc(=O)c7c(Cl)cccc7n5-6)CC4)CC3)no2)C(C)C)cc1 (some centres undefined)
(2) O=c1nc2n(c3cccc(Cl)c13)-c1ccc(C3CCNCC3)cc1C21CCCC1
Q: When 1 and 2 are compared, which has the higher number for pIC50? Reply with the label of the item you choose.
Result: 2
(2: 7.89, 1: 7.33)

---

target: SWI/SNF-related matrix-associated actin-dependent regulator of chromatin subfamily A member 4 (Homo sapiens)
readoutLabel: IC50 (nM)

# example entries with known answers
INSERT INTO assay_data (compound, unittext, valueobserved) VALUES
  ('Cc1ncsc1-c1ccc([C@H](C)NC(=O)[C@@H]2C[C@@H](O)CN2C(=O)[C@@H](c2cc(OCC3(CN4CCC(c5ccc6c(c5)C(C)(C)c5nc(=O)c7c(Cl)cccc7n5-6)CC4)CC3)no2)C(C)C)cc1', 'nM', 100),
  ('Cc1ncsc1-c1ccc([C@H](C)NC(=O)[C@@H]2C[C@@H](O)CN2C(=O)[C@@H](c2cc(OCCN3CCC(c4ccc5c(c4)C(C)(C)c4nc(=O)c6c(Cl)cccc6n4-5)CC3)no2)C(C)C)cc1', 'nM', 79),
  ('O=c1nc2n(c3cccc(Cl)c13)-c1ccc(C3CCNCC3)cc1C21CCNCC1', 'nM', 9100);

(A) Cc1ncsc1-c1ccc([C@H](C)NC(=O)[C@@H]2C[C@@H](O)CN2C(=O)[C@@H](c2cc(OCC(C)CN3CCC(c4ccc5c(c4)-n4c(nc(=O)c6c(Cl)cccc64)C5(C)C)CC3)no2)C(C)C)cc1 (stereo not given in full)
(B) CC1(C)c2cc(C3CCNCC3)ccc2-n2c1nc(=O)c1c(Br)cccc12
Q: Which one would you say has the larger IC50 value: A , or B ? Mark your selection by writing its label.
Result: A
